Hello, the source for this data is ChEMBL document CHEMBL1154957, in case you need it.

# test_target: UniProtKB P06276
# Sequence (P06276 whole entry): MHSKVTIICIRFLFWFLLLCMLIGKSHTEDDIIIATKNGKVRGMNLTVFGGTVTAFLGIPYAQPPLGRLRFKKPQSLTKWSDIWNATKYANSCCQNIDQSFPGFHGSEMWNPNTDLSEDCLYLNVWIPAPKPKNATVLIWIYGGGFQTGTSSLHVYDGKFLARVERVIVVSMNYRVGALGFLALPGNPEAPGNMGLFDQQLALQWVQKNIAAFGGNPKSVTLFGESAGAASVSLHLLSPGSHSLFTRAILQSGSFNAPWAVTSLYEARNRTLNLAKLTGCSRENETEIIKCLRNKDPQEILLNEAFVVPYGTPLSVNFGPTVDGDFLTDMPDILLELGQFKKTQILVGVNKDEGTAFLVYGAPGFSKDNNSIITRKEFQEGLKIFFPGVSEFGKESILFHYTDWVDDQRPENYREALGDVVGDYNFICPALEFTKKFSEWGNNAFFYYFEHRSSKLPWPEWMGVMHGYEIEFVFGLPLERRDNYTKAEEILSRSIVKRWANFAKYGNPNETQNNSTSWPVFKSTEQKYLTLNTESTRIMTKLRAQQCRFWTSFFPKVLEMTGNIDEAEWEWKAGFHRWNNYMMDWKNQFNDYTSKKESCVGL
# assay_explanation: Inhibition of human plasma BChE after 5 mins by Ellman's method
So basically, if IC50 comes in under 100 µM it's True, and if it's 100 µM or more it's False.

// known answers, use as guide
compound	answer_label
c1cc[n+](CCCCCCCCC[n+]2ccccc2)cc1	True
c1cc[n+](CCOCC[n+]2ccccc2)cc1	False
c1cc[n+](CCCCCCCC[n+]2ccccc2)cc1	True
c1cc[n+](Cc2cccc(C[n+]3ccccc3)c2)cc1	False
c1cc[n+](CCCCCCCCCCC[n+]2ccccc2)cc1	True

State whether 100 µM exceeds IC50 recorded for C(=C\C[n+]1ccccc1)/C[n+]1ccccc1 . False

State whether 100 µM exceeds IC50 recorded for c1cc[n+](Cc2ccccc2C[n+]2ccccc2)cc1 . False

State whether 100 µM exceeds IC50 recorded for c1cc[n+](CCCCC[n+]2ccccc2)cc1 . False

State whether 100 µM exceeds IC50 recorded for c1cc[n+](CCCCCC[n+]2ccccc2)cc1 . False

State whether 100 µM exceeds IC50 recorded for CN(C)C(=O)Oc1cccc([N+](C)(C)C)c1 [NEOSTIGMINE BROMIDE] . True

State whether 100 µM exceeds IC50 recorded for c1cc[n+](CCCC[n+]2ccccc2)cc1 . False

State whether 100 µM exceeds IC50 recorded for c1cc[n+](CCCCCCC[n+]2ccccc2)cc1 . True
